Measured % inhibition, listed per entry for reference.
System: Trypanosoma brucei
Test: DNDI: Inhibition of Human African Trypanosomiasis, SBRI 427, in vitro at 2 ug.mL-1
Assay type: functional
The whole screen tested about 4,400 compounds, of which about 390 (8.9%) showed an effect of 50% or more. This excerpt belongs to a sample that is enriched for strong results.
Express your answer in %, writing the number without its unit.

| MOLECULE | READING UNIT | % inhibition |
| --- | --- | --- |
| CCOc1ccc(Oc2cc(/C(=N/O)NC3CCCCC3)ccn2)cc1 | % | 51 |
| CC(C)(C)COc1ncccc1/C(=N/O)N1CCCc2ccccc21 | % | 100 |
| Brc1ccccc1-c1nc(CNCCCn2ccnc2)co1 | % | 2 |
| Brc1ccc(-c2nc(CNCCCn3ccnc3)co2)cc1 | % | 56 |
| CCN(CC)CCNCc1coc(-c2ccc(F)cc2)n1 | % | -17 |
| COc1ccc(-c2nc(CNCCCn3ccnc3)co2)cc1 | % | 6 |
| Cc1cccc(-c2nc(CNCCCn3ccnc3)co2)c1 | % | -8 |
| CCOc1ccc(Oc2cc(/C(=N/O)NC3CCc4ccccc43)ccn2)cc1 (centres undefined) | % | 29 |
| CCCCN(CCCC)CCCNCc1coc(-c2ccc(C)cc2)n1 | % | 53 |
| CCOc1ccccc1-c1nc(CNCCCn2ccnc2)co1 | % | 32 |

## Task Field: % inhibition (Trypanosoma brucei). Entry: CC1CCc2ccccc2N1/C(=N\O)c1cccnc1OCC(C)(C)C (centres undefined)
## Result 84

## Task Field: % inhibition (Trypanosoma brucei). Entry: CCOc1ccc(Oc2cc(/C(=N/O)NC3CC(C)CC(C)(C)C3)ccn2)cc1 (centres undefined)
## Result 29

## Task Field: % inhibition (Trypanosoma brucei). Entry: CCCCN(CCCC)CCCNCc1coc(-c2ccc(F)cc2)n1
## Result 1

## Task Field: % inhibition (Trypanosoma brucei). Entry: O/N=C(/c1cccnc1OCc1ccccc1F)N1CCCc2ccccc21
## Result -20

## Task Field: % inhibition (Trypanosoma brucei). Entry: CC(C)(C)COc1ncccc1/C(=N/O)N1CCCCCC1
## Result 8

## Task Field: % inhibition (Trypanosoma brucei). Entry: Clc1ccc(-c2nc(CNCc3ccncc3)co2)c(Cl)c1
## Result 9

## Task Field: % inhibition (Trypanosoma brucei). Entry: CCOc1ccc(Oc2cc(/C(=N/O)NC3CCCC3)ccn2)cc1
## Result 53

## Task Field: % inhibition (Trypanosoma brucei). Entry: C#CCNCc1coc(-c2ccc(Cl)cc2Cl)n1
## Result 3

## Task Field: % inhibition (Trypanosoma brucei). Entry: COc1cccc(-c2nc(CN(C)Cc3cc(OC)c(OC)c(OC)c3)co2)c1
## Result -4

## Task Field: % inhibition (Trypanosoma brucei). Entry: CCN(CC)CCNCc1coc(-c2cccc(C)c2)n1
## Result 26
